tested on: TRFP primed T cell cultures; test: T cell proliferation assay (tritiated thymidine incorporation) of TRFP-primed T cells restimulated with allergens or peptides; format: cell-based, human; settings: Chain #2 TRFP peptides; cat allergic patients; average of responding patients
Response key: Criterion met means SI >= 6; Criterion not met means SI < 6.

Worked examples, 3 substances total:
SUBSTANCE	SUBJECT_OF_TEST	CAT
Fel 28: TRFP chain 2 peptide, amino acids 60 - 82 (DGLVMTTISSSKDCMGEAVQNTV; UniProt P30440 77-99, looked up, fragment)	TRFP primed T cell cultures	Criterion not met
Fel 31-1: TRFP chain 2 peptide, amino acids 14 - 40 (FFAVANGNELLLDLSLTKVNATEPERT; UniProt P30440 31-57, looked up, fragment)	TRFP primed T cell cultures	Criterion met
Fel 32-1: TRFP chain 2 peptide, amino acids 12 - 24 (DVFFAVANGNELL; UniProt P30440 29-41, looked up, fragment)	TRFP primed T cell cultures	Criterion met

Does the reported SI for Fel 31-6: TRFP chain 2 peptide, amino acids 15 - 40 (FAVANGNELLLDLSLTKVNATEPERT; UniProt P30440 32-57, looked up, fragment) fall at or above the 6 mark?
Criterion not met

====

Test system: TRFP primed T cell cultures
Test: T cell proliferation assay (tritiated thymidine incorporation) of TRFP-primed T cells restimulated with allergens or peptides
Format: cell-based, human
Conditions: Chain #1 TRFP peptides; cat allergic patients; average SI of all responding patients multiplied by percent of patients with a positive response
Description: Peripheral blood mononuclear cells (PBMC) were purified from 60 ml of heparinized blood from cat allergic patients. PBMC were subsequently treated as described below, although in individual cases, the length of time of cultivation with IL-2 and/or IL-4 and the specific peptides used for stimulation varied. 10 ml of PBMC from patient 131 at 10^6/ml were cultured at 37°C for 7 days in the presence of 5 micrograms purified TRFP/ml RPMI-1640 supplemented with 5% pooled human AB serum. […]
OBSERVED_PROPERTY: PI
Reply briefly: the number, and no unit.

Examples with answers:
SUBSTANCE	OBSERVED_PROPERTY	MEASURED_VALUE
Fel 14-4: TRFP chain 1 peptide, amino acids 26 - 36 (AQYKALPVVLE; UniProt P30438 48-58, looked up, fragment)	PI	474
Fel 8-1: TRFP chain 1 peptide, amino acids 5 - 33 (AVKRDVDLFLTGTPDEYVEQVAQYKALPV; UniProt P30438 27-55, looked up, fragment)	PI	1374

Now turn to the next substance.
Entry Fel 8: TRFP chain 1 peptide, amino acids 1 - 30 (EICPAVKRDVDLFLTGTPDEYVEQVAQYKA; UniProt P30438 23-52, looked up, fragment) ; PI = 1393

====

Measured PI, listed per entry.
tested on: TRFP primed T cell cultures; experiment: T cell proliferation assay (tritiated thymidine incorporation) of TRFP-primed T cells restimulated with allergens or peptides; format: cell-based, human; conditions: Chain #2 TRFP peptides; cat allergic patients; average SI of responding patients multiplied by percent positive
Reply briefly: the number, and no unit.

Examples with answers:
SUBSTANCE	MEASURED_VALUE
Fel 31-1: TRFP chain 2 peptide, amino acids 14 - 40 (FFAVANGNELLLDLSLTKVNATEPERT; UniProt P30440 31-57, looked up, fragment)	733
Fel 31-7: TRFP chain 2 peptide, amino acids 15 - 36 (FAVANGNELLLDLSLTKVNATE; UniProt P30440 32-53, looked up, fragment)	267
Fel 20-1: TRFP chain 2 peptide, amino acids 34 - 59 (ATEPERTAMKKIQDCYVENGLISRVL; UniProt P30440 51-76, looked up, fragment)	395
Fel 32-1: TRFP chain 2 peptide, amino acids 12 - 24 (DVFFAVANGNELL; UniProt P30440 29-41, looked up, fragment)	442

Entry Fel 31-6: TRFP chain 2 peptide, amino acids 15 - 40 (FAVANGNELLLDLSLTKVNATEPERT; UniProt P30440 32-57, looked up, fragment) ; PI = 295
